Source of measurements: patent US20160340322A1

Molecular target: Human T-type calcium channel (Cav 3.2) (Homo sapiens)
Construct: Edward Perez-Reyes, University of Virginia, USA
Test: Calcium Influx Inhibition Assay
Conditions: human T-type calcium channel (Cav 3.2) expressing HEK293 cells; FLIPR Calcium 4 fluorescence; 30 min compound incubation; read-out: T-type calcium channel inhibition concentration IC50
Experimental: 1. Calcium Influx Inhibition Assay Human T-type calcium channel (Cav 3.2) expressing HEK293 cells were introduced from Prof. Edward Perez-Reyes, University of Virginia, USA. […] While fluorescence was continuously analyzed from the bottom with a FlexStation 3 (Molecular Devices), a calcium solution was added. […] Based on the rise value in the fluorescence from the base line, the inhibition percentage was calculated. […]
ATTRIBUTE MEASURED: IC50 (nM)

Recorded IC50, per entry:
O=c1nc(N2CCN(c3ccc(F)cc3)CC2)cnn1Cc1cnc(C(F)(F)F)s1 [Synthesis Example 10]
490
O=c1nc(N2CC=C(c3ccc(F)c(Cl)c3)[C@@H](O)C2)cnn1Cc1cnc(C(F)(F)F)s1 [Synthesis Example 43]
54
COc1cccc(C2=CCN(c3cnn(Cc4ccc(C(F)(F)F)s4)c(=O)n3)C[C@@H]2O)n1 [Synthesis Example 32]
48
Cc1ccc(C2=CCN(c3cnn(Cc4ccc(C(F)(F)F)s4)c(=O)n3)C[C@@H]2O)cc1F [Synthesis Example 52]
7.9

a: O=c1nc(N2CC=C(c3ccc(F)cc3)[C@@H](O)C2)cnn1Cn1ccc(C(F)(F)F)n1 [Synthesis Example 46]
b: COc1ccc2c(c1)CCN(c1cnn(Cc3cnc(C(F)(F)F)s3)c(=O)n1)C2C (stereo not shown) [Synthesis Example 19]
QUERY: IC50 comparison. Which is larger, a or b ? Please indicate the selected item by its label.
RESULT: b

----------
target: Human T-type calcium channel (Cav 3.2) (Homo sapiens); construct: Edward Perez-Reyes, University of Virginia, USA; test: Calcium Influx Inhibition Assay; details: human T-type calcium channel (Cav 3.2) expressing HEK293 cells; FLIPR Calcium 4 fluorescence; 30 min compound incubation; read-out: T-type calcium channel inhibition concentration IC50
ATTRIBUTE MEASURED: IC50 (nM)

Sample answers from the record:
COc1ccc2c(c1)CCN(c1cnn(Cc3ccc(C(F)(F)F)s3)c(=O)n1)C2C (stereo not drawn) [Synthesis Example 42]
600
Cc1cc(N2CCN(c3cnn(Cc4cnc(C(F)(F)F)s4)c(=O)n3)CC2)cs1 [Synthesis Example 23]
670

a: O=c1nc(N2CC=C(c3ccc(F)cc3)[C@@H](O)C2)cnn1Cc1ccc(OS(=O)(=O)C(F)(F)F)nc1 [Synthesis Example 51]
b: Cc1cccc(C2=CCN(c3cnn(Cc4ccc(C(F)(F)F)s4)c(=O)n3)C[C@@H]2O)n1 [Synthesis Example 31]
QUERY: Would you kindly point out which of a and b has the smaller IC50 figure? Answer format: the label of the selected item.
RESULT: a
(a: 5.6 nM, b: 120 nM)

a: Cc1cc(C2=CCN(c3cnn(Cc4ccc(C(F)(F)F)s4)c(=O)n3)C[C@@H]2O)cs1 [Synthesis Example 15]
b: O=c1nc(N2CCc3cc(C(F)(F)F)ccc3C2)cnn1Cc1ccc(C(F)(F)F)s1 [Synthesis Example 53]
QUERY: Select one. Lower IC50: a or b Please indicate the selected item by its label.
RESULT: a
(a: 1 nM, b: 170 nM)

P: O=c1nc(N2CCN(c3ccc(F)cc3)CC2)cnn1Cc1ccc(C(F)(F)F)s1 [Synthesis Example 5]
Q: O=c1nc(N2CC=C(c3ccc(F)cc3)[C@@H](O)C2)cnn1Cn1cc(Cl)cn1 [Synthesis Example 47]
QUERY: Problem: Given the entries P and Q , determine which has the lower reported IC50. When you have decided, please share the label of that item.
RESULT: P

----------
biological target: Human T-type calcium channel (Cav 3.2) (Homo sapiens); construct: Edward Perez-Reyes, University of Virginia, USA; host or cells: HEK293; assay: Calcium Influx Inhibition Assay; format: cell-based; conditions: human T-type calcium channel (Cav 3.2) expressing HEK293 cells; FLIPR Calcium 4 fluorescence; 30 min compound incubation; read-out: T-type calcium channel inhibition concentration IC50
ATTRIBUTE MEASURED: IC50 (nM)

A: O=c1nc(N2CCN(c3ccc(Cl)cc3)CC2)cnn1Cc1ccc(C(F)(F)F)s1 [Synthesis Example 41]
B: O=c1nc(N2CCN(c3ccc(F)cc3)CC2)cnn1Cc1ccc(OCc2ccc(Cl)cc2)cc1 [Synthesis Example 3]
QUERY: Decide: A or B , by lowest recorded IC50. Select an item and report its label.
RESULT: A

P: O=c1nc(N2CCN(c3ccc(F)cc3)CC2)cnn1Cc1ccc(Cl)cc1 [Synthesis Example 1]
Q: O=c1nc(N2CCN(c3ccc(F)cc3)CC2)cnn1Cc1ccc(OCc2ccc(F)cc2)cc1 [Synthesis Example 4]
QUERY: Which value of IC50 is numerically greater: that of P or that of Q ? Answer = label.
RESULT: P
(P: 220 nM, Q: 35 nM)

----------
molecular target: Human T-type calcium channel (Cav 3.2) (Homo sapiens, UniProt O95180); construct: Edward Perez-Reyes, University of Virginia, USA; assay: Calcium Influx Inhibition Assay; conditions: human T-type calcium channel (Cav 3.2) expressing HEK293 cells; FLIPR Calcium 4 fluorescence; 30 min compound incubation; read-out: T-type calcium channel inhibition concentration IC50
Sequence (O95180 whole entry): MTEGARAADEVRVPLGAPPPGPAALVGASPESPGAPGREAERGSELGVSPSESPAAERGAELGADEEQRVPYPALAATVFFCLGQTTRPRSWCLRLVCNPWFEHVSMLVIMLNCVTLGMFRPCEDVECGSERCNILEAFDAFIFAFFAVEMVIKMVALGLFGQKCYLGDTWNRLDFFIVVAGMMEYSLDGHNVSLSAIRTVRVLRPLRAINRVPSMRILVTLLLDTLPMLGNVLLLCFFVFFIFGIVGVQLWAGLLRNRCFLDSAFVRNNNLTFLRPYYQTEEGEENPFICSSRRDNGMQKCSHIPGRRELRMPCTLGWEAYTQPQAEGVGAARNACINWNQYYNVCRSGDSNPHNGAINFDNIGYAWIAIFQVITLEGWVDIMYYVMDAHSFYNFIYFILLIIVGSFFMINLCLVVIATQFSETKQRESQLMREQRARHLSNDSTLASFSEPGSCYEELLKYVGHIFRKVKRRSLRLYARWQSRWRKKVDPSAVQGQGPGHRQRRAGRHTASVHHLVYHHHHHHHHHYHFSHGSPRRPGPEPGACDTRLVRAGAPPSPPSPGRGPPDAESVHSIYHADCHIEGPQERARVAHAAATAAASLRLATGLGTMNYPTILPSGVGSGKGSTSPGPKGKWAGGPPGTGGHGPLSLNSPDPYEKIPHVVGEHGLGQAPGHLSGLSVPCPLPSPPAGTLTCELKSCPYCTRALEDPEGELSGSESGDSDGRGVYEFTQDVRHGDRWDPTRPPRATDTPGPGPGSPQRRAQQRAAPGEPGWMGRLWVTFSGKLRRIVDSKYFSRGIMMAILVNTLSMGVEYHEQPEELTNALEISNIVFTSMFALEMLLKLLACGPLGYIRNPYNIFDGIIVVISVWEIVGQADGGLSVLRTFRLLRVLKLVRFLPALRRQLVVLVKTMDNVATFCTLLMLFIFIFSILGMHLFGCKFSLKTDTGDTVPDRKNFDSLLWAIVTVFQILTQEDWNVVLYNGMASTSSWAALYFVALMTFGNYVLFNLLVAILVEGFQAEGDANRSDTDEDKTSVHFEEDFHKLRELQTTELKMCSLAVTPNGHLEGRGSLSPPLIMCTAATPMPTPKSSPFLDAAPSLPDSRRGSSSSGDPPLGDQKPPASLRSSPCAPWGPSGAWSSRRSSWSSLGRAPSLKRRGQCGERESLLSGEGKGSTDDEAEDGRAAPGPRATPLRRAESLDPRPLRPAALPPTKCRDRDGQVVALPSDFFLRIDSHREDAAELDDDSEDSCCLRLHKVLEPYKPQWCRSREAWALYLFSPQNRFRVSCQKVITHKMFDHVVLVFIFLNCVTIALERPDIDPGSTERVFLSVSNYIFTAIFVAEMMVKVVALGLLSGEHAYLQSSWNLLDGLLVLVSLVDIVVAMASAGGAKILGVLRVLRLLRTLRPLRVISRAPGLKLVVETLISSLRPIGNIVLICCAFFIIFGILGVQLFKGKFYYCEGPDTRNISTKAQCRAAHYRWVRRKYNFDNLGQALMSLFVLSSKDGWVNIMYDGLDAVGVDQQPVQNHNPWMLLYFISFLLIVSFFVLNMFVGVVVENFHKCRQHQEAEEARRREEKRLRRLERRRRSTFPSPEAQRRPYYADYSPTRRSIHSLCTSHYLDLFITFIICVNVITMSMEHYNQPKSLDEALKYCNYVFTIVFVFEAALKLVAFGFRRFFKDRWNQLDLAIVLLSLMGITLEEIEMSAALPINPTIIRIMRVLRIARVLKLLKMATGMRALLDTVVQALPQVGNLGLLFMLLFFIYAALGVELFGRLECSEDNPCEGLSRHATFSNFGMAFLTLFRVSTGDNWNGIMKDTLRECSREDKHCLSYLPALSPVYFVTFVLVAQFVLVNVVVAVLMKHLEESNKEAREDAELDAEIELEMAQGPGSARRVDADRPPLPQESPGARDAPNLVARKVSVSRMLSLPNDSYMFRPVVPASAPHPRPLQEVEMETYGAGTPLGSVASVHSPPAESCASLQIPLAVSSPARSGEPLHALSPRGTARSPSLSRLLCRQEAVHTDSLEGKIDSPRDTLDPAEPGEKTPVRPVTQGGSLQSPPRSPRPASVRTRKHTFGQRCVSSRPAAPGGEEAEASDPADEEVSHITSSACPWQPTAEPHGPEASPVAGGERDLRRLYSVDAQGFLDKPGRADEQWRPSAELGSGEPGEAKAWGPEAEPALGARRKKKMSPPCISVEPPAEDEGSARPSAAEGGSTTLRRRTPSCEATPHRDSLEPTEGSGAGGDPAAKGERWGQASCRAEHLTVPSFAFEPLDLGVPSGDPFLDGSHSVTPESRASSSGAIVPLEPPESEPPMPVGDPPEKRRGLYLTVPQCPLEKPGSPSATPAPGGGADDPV
pIC50: −log10 of the molar value.
ATTRIBUTE MEASURED: pIC50

Example entries and their recorded answers appear below.
Cn1ccc(C2=CCN(c3cnn(Cc4ccc(C(F)(F)F)s4)c(=O)n3)CC2)n1 [Synthesis Example 39]
5.89
Cc1ccc(N2CCN(c3cnn(Cc4ccc(C(F)(F)F)s4)c(=O)n3)CC2)nc1 [Synthesis Example 8]
6.68
O=c1nc(N2CCc3c([nH]c4cc(F)ccc34)C2)cnn1Cc1ccc(C(F)(F)F)s1 [Synthesis Example 9]
7.77

P: O=c1nc(N2CC=C(c3ccc(F)cc3)[C@@H](O)C2)cnn1Cc1ccc(C(F)(F)F)s1 [Synthesis Example 7]
Q: NC1CN(c2cnn(Cc3ccc(C(F)(F)F)s3)c(=O)n2)CC=C1c1ccc(F)cc1 (stereo not shown) [Synthesis Example 36]
QUERY: Smaller pIC50 value, P vs Q ? // caller expects the label of the chosen entry
RESULT: P
(P: 8.22, Q: 8.47)

1: Cc1cc(N2CCN(c3cnn(Cc4ccc(C(F)(F)F)s4)c(=O)n3)CC2)cs1 [Synthesis Example 40]
2: O=c1nc(N2CC=C(c3ccc(F)c(Cl)c3)[C@@H](O)C2)cnn1Cc1ccc(C(F)(F)F)s1 [Synthesis Example 54]
QUERY: Select the item with the higher value of pIC50 from the options 1 and 2 listed. State the label of the item chosen.
RESULT: 2

----------
Molecular target: Human T-type calcium channel (Cav 3.2) (Homo sapiens, UniProt O95180)
Construct: Edward Perez-Reyes, University of Virginia, USA
Assay: Calcium Influx Inhibition Assay
Details: human T-type calcium channel (Cav 3.2) expressing HEK293 cells; FLIPR Calcium 4 fluorescence; 30 min compound incubation; read-out: T-type calcium channel inhibition concentration IC50
Procedure: 1. Calcium Influx Inhibition Assay Human T-type calcium channel (Cav 3.2) expressing HEK293 cells were introduced from Prof. Edward Perez-Reyes, University of Virginia, USA. […] While fluorescence was continuously analyzed from the bottom with a FlexStation 3 (Molecular Devices), a calcium solution was added. […] Based on the rise value in the fluorescence from the base line, the inhibition percentage was calculated. […]
ATTRIBUTE MEASURED: IC50 (nM)

Sample records with IC50:
O=c1nc(N2CC=C(c3ccc(F)cc3)[C@@H](O)C2)cnn1Cc1ccc(C(F)(F)F)o1 [Synthesis Example 27]
130
O=c1nc(N2CCN(c3ccc(F)c(Cl)c3)CC2)cnn1Cc1cnc(C(F)(F)F)s1 [Synthesis Example 21]
230
Cn1cc(C2=CCN(c3cnn(Cc4cnc(C(F)(F)F)s4)c(=O)n3)C[C@@H]2O)cn1 [Synthesis Example 24]
4900
Cc1ccc(C2=CCN(c3cnn(Cc4ccc(C(F)(F)F)s4)c(=O)n3)C[C@@H]2O)o1 [Synthesis Example 37]
4.8
COc1nc(C2=CCN(c3cnn(Cc4ccc(C(F)(F)F)s4)c(=O)n3)C[C@@H]2O)ccc1Cl [Synthesis Example 29]
12
Cn1cc(C2=CCN(c3cnn(Cc4ccc(C(F)(F)F)s4)c(=O)n3)C[C@@H]2O)cn1 [Synthesis Example 38]
180
O=c1nc(N2Cc3ccc(OC(F)F)cc3C(O)C2)cnn1Cc1ccc(C(F)(F)F)s1 (stereo not drawn)
64
O=c1nc(N2CC=C(c3ccc(F)cc3)CC2)cnn1Cc1ccc(C(F)(F)F)s1 [Synthesis Example 6]
24

I: Cc1cc(F)ccc1C1=CCN(c2cnn(Cc3ccc(C(F)(F)F)s3)c(=O)n2)C[C@@H]1O [Synthesis Example 30]
II: O=c1nc(N2CCc3cc(C(F)(F)F)ccc3C2)cnn1Cc1cnc(C(F)(F)F)s1 [Synthesis Example 44]
QUERY: # argmax over IC50 for candidates I and II Selection: enter the item's label.
RESULT: II
(II: 570 nM, I: 72 nM)

I: O=c1nc(N2CC=C(c3ccc(F)cc3)[C@@H](O)C2)cnn1Cn1ccc(C(F)(F)C(F)(F)F)n1 [Synthesis Example 49]
II: O=c1nc(N2CCN(c3ccc(F)c(Cl)c3)CC2)cnn1Cc1ccc(C(F)(F)F)s1 [Synthesis Example 34]
QUERY: Please indicate which entry, I or II , has the lower recorded IC50 value. Identify your selection by its label.
RESULT: I

I: CCOc1ccc2c(c1)C(O)CN(c1cnn(Cc3ccc(C(F)(F)F)s3)c(=O)n1)C2 (stereo not drawn) [Synthesis Example 16]
II: O=c1nc(N2CC=C(c3ccc(F)cc3)C(F)C2)cnn1Cc1cnc(C(F)(F)F)s1 (stereo not drawn) [Synthesis Example 22]
QUERY: Could you kindly indicate whether I or II has the higher IC50 value? Indicate which entry you chose by stating its label.
RESULT: I
